# TARGET: human SERT (Homo sapiens, UniProt P31645)
# Sequence (P31645 whole entry): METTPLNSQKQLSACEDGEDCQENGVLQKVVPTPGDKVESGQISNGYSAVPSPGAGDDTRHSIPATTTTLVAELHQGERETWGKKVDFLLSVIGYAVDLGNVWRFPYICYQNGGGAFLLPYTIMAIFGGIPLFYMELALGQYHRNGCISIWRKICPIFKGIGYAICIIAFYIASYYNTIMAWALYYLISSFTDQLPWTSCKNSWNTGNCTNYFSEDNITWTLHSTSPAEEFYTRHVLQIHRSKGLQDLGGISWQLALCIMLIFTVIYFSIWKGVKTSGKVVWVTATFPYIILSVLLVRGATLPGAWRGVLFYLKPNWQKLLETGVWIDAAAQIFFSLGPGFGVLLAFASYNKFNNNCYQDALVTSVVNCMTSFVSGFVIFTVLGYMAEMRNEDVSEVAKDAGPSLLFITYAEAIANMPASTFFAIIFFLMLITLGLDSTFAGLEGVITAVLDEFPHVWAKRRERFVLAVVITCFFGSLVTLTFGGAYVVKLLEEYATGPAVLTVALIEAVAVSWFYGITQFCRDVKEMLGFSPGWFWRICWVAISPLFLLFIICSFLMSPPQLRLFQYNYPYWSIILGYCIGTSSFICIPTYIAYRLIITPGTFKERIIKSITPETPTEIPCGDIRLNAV
# ASSAY INFO: Inhibitory activity assay against 5-HT transporter (neurotransmitter transporter uptake assay kit)
# CONDITIONS USED: HEK-293 cells overexpressing human SERT; read-out: 5-HTT (IC50)
pIC50: −log10 of the molar value.
TEST READOUT: pIC50

| COMPOUND | VALUE |
| --- | --- |
| Nc1nc2c(s1)CC(N)(c1ccc(F)cc1F)CC2 (racemic) | 5.23 |
| CCOc1nc2c(s1)CC(N)(c1ccccc1)CC2 (racemic) | 6.52 |
| COc1cccc(C2(N)CCc3nc(C(N)=O)sc3C2)c1 (racemic) | 5.17 |
| NC1(c2cccc(O)c2)CCc2nc(O)sc2C1 (racemic) | 6.70 |
| N[C@]1(c2ccccc2)CCc2ncsc2C1 | 7.17 |
| NC1(c2ccccc2)CCc2oncc2C1 (racemic) | 6.22 |
